Molecular target: gamma secretase (Homo sapiens, UniProt P49768)
Construct: HEK293 cells stably expressing full length Amyloid Precursor Protein (APP); endogenous in cells
Assay: GSM cell-based assay: Aβ 42 inhibition or reduction in HEK 293 cells over-expressing APP (sandwich ELISA)
Settings: approximate IC50; HEK293 cells stably expressing full length APP, 24 hours incubation, 10-point dose response starting at 10 μM
measurement_kind: IC50

INSERT INTO assay_data (molecule, measurement_kind, readout_value) VALUES
  ('Cc1cc(-c2ccc(NC(=O)C3CC34CCC4)cc2)ccn1 (centres unmarked)', 'IC50', '> 10 µM'),
  ('CC(=O)N1CCC(C(=O)Nc2ccc(-c3ccnc(C)c3)cc2)CC1', 'IC50', '> 10 µM'),
  ('Cc1cc(-c2ccc(NC(=O)[C@@H](C)c3cc(C(F)(F)F)cc(C(F)(F)F)c3)cc2)ccn1', 'IC50', '> 10 µM'),
  ('Cc1cc(-c2ccc(NC(=O)c3ccc(CN4CCOCC4)cc3)cc2)ccn1', 'IC50', '> 3.33 µM');

Switching to the query record.
Sample Cc1cc(-c2ccc(NC(=O)Cc3c(F)cccc3Cl)cc2)ccn1 ; IC50 observed: > 10 µM
